biological target: Serine/threonine-protein kinase Sgk1 (Mus musculus, UniProt Q9WVC6); test: Inhibition of mouse SGK1 in presence 500 uM presence of ATP
Sequence (Q9WVC6 whole entry): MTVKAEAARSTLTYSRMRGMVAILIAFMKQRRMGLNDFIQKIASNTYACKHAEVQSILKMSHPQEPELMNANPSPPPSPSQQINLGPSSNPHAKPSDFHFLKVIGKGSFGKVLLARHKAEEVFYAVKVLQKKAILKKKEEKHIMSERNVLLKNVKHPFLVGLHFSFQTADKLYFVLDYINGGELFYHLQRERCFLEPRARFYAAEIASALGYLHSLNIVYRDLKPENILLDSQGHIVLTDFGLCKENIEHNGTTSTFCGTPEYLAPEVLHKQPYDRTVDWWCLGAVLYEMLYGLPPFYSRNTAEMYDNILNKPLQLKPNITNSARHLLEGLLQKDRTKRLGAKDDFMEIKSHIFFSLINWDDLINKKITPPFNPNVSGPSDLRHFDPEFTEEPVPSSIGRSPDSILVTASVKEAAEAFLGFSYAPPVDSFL
Property Name: pIC50
Answers are plain numbers, as −log10 of the molar value.

Task: Retrieve pIC50 measured for O=S(=O)(Nc1ccc(-c2nc(O[C@H]3CC[C@H](O)CC3)c3cn[nH]c3n2)cc1)c1cc(Cl)ccc1F and print it.
Result: 6.60

---

Target: Serine/threonine-protein kinase Sgk1 (Homo sapiens)
Sequence (O00141 whole entry): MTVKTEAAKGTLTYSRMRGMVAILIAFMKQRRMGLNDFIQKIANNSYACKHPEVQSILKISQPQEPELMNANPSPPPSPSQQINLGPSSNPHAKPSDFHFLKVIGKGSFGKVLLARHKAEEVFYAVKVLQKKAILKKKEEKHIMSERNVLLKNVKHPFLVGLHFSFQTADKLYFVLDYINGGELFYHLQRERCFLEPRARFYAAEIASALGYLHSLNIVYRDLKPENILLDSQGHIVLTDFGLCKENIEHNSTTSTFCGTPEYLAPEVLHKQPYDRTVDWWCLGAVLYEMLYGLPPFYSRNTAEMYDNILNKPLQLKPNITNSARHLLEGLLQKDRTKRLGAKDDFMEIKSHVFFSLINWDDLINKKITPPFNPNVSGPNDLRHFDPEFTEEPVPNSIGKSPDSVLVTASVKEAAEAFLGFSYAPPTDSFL
Test: Inhibition of recombinant human SGK1 expressed in baculovirus expression system using 5-carboxyfluorescein -RPRAATF-NH2 as substrate preincubated for 30 mins followed by substrate addition in presence of 500 uM ATP and measured after 60 mins by microfluidics assay
Would you kindly list pIC50 for each of these molecules?
Numbers only, as −log10 of the molar value.

>>> print(df.to_string())
                                   molecule                            assayed_target  property_name  number
0  CC(C)N1CC[C@H](NC(=O)c2cc(-c3ccc(NS(=O)(=O)c4cccc(Cl)c4Cl)cc3)nc3[nH]ncc23)C1  Serine/threonine-protein kinase Sgk1 (Homo sapiens)          pIC50    7.42
1  Cc1n[nH]c2nc(-c3ccc(NS(=O)(=O)c4cc(Cl)ccc4F)cc3)nc(OC3CCC(=O)CC3)c12  Serine/threonine-protein kinase Sgk1 (Homo sapiens)          pIC50    7.74
2  Cc1n[nH]c2nc(-c3ccc(NS(=O)(=O)c4cc(Cl)ccc4F)cc3)nc(OCC(CO)CO)c12  Serine/threonine-protein kinase Sgk1 (Homo sapiens)          pIC50    8.70
3  Cc1n[nH]c2nc(-c3ccc(NS(=O)(=O)c4cc(Cl)ccc4F)cc3)nc(Oc3ccc(O)nc3)c12  Serine/threonine-protein kinase Sgk1 (Homo sapiens)          pIC50    8.40

Please report pIC50 for every entry that follows.
1. Cc1n[nH]c2nc(-c3ccc(NS(=O)(=O)c4cc(Cl)ccc4F)cc3)nc(OCC3CNCCO3)c12 (configuration not stated)
2. Cc1n[nH]c2nc(-c3ccc(NS(=O)(=O)c4cc(Cl)ccc4F)cc3)nc(OC3CCN(CC(F)(F)F)CC3)c12

Result:
[8.70, 6.58]

---

target: Serine/threonine-protein kinase Sgk1 (Homo sapiens, UniProt O00141); experiment: Inhibition of recombinant human SGK1 expressed in baculovirus expression system using 5-carboxyfluorescein -RPRAATF-NH2 as substrate preincubated for 30 mins followed by substrate addition in presence of 10 uM ATP and measured after 60 mins by microfluidics assay
Property Name: pIC50
Give bare numbers, as −log10 of the molar value.

These recorded examples may help you get a feel for the data.
>>> print(df.to_string())
                                   compound  number
0  CN1CCC(CNC(=O)c2cc(-c3ccc(NS(=O)(=O)c4cccc(Cl)c4Cl)cc3)nc3[nH]ncc23)C1 (racemic)    7.85
1  COCCN1CCC(Oc2nc(-c3ccc(NS(=O)(=O)c4cc(Cl)ccc4F)cc3)nc3[nH]nc(C)c23)CC1    8.52
2  Nc1nc(CNC(=O)c2cc(-c3ccc(NS(=O)(=O)c4cccc(Cl)c4Cl)cc3)nc3[nH]ncc23)cs1    7.72
3  Cc1n[nH]c2nc(-c3ccc(NS(=O)(=O)c4cc(Cl)ccc4F)cc3)nc(OC3CCNCC3)c12    9.00

# batch: return pIC50 for each of the 3 compounds below
1. O=C(NC1CCN(CCO)C1)c1cc(-c2ccc(NS(=O)(=O)c3cccc(Cl)c3Cl)cc2)nc2[nH]ncc12 (racemic)
2. CCN1CCC(Oc2nc(-c3ccc(NS(=O)(=O)c4cc(Cl)ccc4F)cc3)nc3[nH]nc(C)c23)CC1
3. Cc1n[nH]c2nc(-c3ccc(NS(=O)(=O)c4cc(Cl)ccc4F)cc3)nc(OC3CC(C)(C)NC(C)(C)C3)c12

Result:
[9.00, 8.70, 8.52]

---

experiment: Cmax in Sprague-Dawley rat plasma at 30 mg/kg, po; assay type: ADME, organism-based; set-up: route oral, dose 30 mg/kg
Property Name: Cmax (ng/mL)
One number for each entry, in ng/mL.

Task: Using known records, supply Cmax for N#Cc1ccc(Cl)cc1S(=O)(=O)Nc1ccc(-c2ncc3c(N)n[nH]c3n2)cc1
Result: 10600

---

target: Serine/threonine-protein kinase Sgk1 (Homo sapiens, UniProt O00141); experiment: Inhibition of recombinant human SGK1 expressed in baculovirus expression system using 5-carboxyfluorescein -RPRAATF-NH2 as substrate preincubated for 30 mins followed by substrate addition in presence of 500 uM ATP and measured after 60 mins by microfluidics assay
Provide the recorded IC50 for the entries that follow.
Give bare numbers, in nM.

Reference set, count: 2
In [3]: df
Out[3]:
                                   compound                            assayed_target  property_name  number
0  O=C(NCc1nncs1)c1cc(-c2ccc(NS(=O)(=O)c3cccc(Cl)c3Cl)cc2)nc2[nH]ncc12  Serine/threonine-protein kinase Sgk1 (Homo sapiens, UniProt O00141)           IC50    1270
1  Cc1n[nH]c2nc(-c3ccc(NS(=O)(=O)c4cc(Cl)ccc4F)cc3)nc(OC3CCNCC3)c12  Serine/threonine-protein kinase Sgk1 (Homo sapiens, UniProt O00141)           IC50       1

// each listed compound needs a value for IC50
1. Cc1n[nH]c2nc(-c3ccc(NS(=O)(=O)c4cc(Cl)ccc4F)cc3)nc(OCCC(=O)N(C)C)c12
2. Cc1n[nH]c2nc(-c3ccc(NS(=O)(=O)c4cc(Cl)ccc4F)cc3)nc(OCC(F)(F)CN)c12
3. CCOc1nc(-c2ccc(NS(=O)(=O)c3cc(Cl)ccc3F)cc2)nc2[nH]nc(C)c12
4. Cc1n[nH]c2nc(-c3ccc(NS(=O)(=O)c4cc(Cl)ccc4F)cc3)nc(OC3CCNCC3F)c12 (stereo unspecified)
5. Cc1n[nH]c2nc(-c3ccc(NS(=O)(=O)c4cc(Cl)ccc4F)cc3)nc(OC3CC(C)(C)NC(C)(C)C3)c12
6. O=C(NCCn1cnnc1)c1cc(-c2ccc(NS(=O)(=O)c3cccc(Cl)c3Cl)cc2)nc2[nH]ncc12
7. O=C(c1cc(-c2ccc(NS(=O)(=O)c3cccc(Cl)c3Cl)cc2)nc2[nH]ncc12)N1CCNCC1

Result:
438
5
183
1
4
609
1280

---

target: Serine/threonine-protein kinase Sgk1 (Homo sapiens, UniProt O00141); test: Inhibition of recombinant human SGK1 expressed in baculovirus expression system using 5-carboxyfluorescein -RPRAATF-NH2 as substrate preincubated for 30 mins followed by substrate addition in presence of 10 uM ATP and measured after 60 mins by microfluidics assay
I'd be grateful if you could share measured IC50 for these entries.

Provide IC50 values for the following items, in order.
1. O=C(NCc1ncc[nH]1)c1cc(-c2ccc(NS(=O)(=O)c3cccc(Cl)c3Cl)cc2)nc2[nH]ncc12
2. Cc1n[nH]c2nc(-c3ccc(NS(=O)(=O)c4cc(Cl)ccc4F)cc3)nc(OC3CCC(O)CC3)c12 (stereo not drawn)
3. Cc1n[nH]c2nc(-c3ccc(NS(=O)(=O)c4cc(Cl)ccc4F)cc3)nc(OCCCN)c12

Result:
["< 1 nM", "< 2 nM", "< 2 nM"]
